# Test: chemical genetic growth profiling, strain panel (AID 1159580);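 further: tested at 20 µM; growth read once vehicle control cultures reached saturation at 30 °C; 1 = growth at the plate median or of vehicle wells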
# Stated conditions: S. cerevisiae deletion strains, growth OD, locus YJR066W, strain TOR1, stronger effect = lower value
About 2,000 (36%) of roughly 5,500 compounds were called active. Not shown: some 18% with an inconclusive outcome. This is one part of the list.
Recorded metric: normalized growth
API note: the answer field is a bare number with no unit suffix.

# count of solved cases: 6
Molecule	normalized growth
O=C(O)[C@H](O)[C@@](O)(Cc1ccc(O)cc1)C(=O)O	0.995
CSc1nnc(COc2ccc(C)c3c2CCC3)n1-c1ccccc1	1.07
CN(C(=O)C(Cl)Cl)c1ccc(OC(=O)c2ccco2)cc1	0.915
O=C(c1cc2c(s1)-c1ccccc1CC2)N1CCN(Cc2ccccc2)CC1	1.07
Cc1ccc(OCc2n[nH]c(=S)n2Cc2ccccc2)c2c1CCC2	0.73
CC(=O)CC1CCCCN1 (configuration not stated)	0.975

Which normalized growth value belongs to `O=C(CCc1ccc(O)cc1)c1c(O)cc(O)cc1O[C@@H]1O[C@H](CO)[C@@H](O)[C@H](O)[C@H]1O` ?
0.942

Request: COC(=O)C[C@H]1C(C)(C)[C@@H](O)[C@@H]2CC3=C4C=C(OC)O[C@@H](c5ccoc5)[C@]4(C)CCC3[C@@]1(C)C2=O (some centres not stated)
0.92

Request: `CN1CCN(CCCN2c3ccccc3Sc3ccc(C(F)(F)F)cc32)CC1`
0.915

Request: `O=c1oc2c(O)c(O)cc3c(=O)oc4c(O)c(O)cc1c4c23`
0.974

Request: `CN1CCN(CCC=C2c3ccccc3Sc3ccc(S(=O)(=O)N(C)C)cc32)CC1`
0.922

Request: `COc1ccc2c(c1)[C@]13CCCC[C@H]1[C@H](C2)N(C)CC3`
0.984

Request: `COc1cc(-c2coc3cc(O[C@@H]4O[C@H](CO)[C@@H](O)[C@H](O)[C@H]4O)c(OC)c(O)c3c2=O)cc(O)c1OC`
0.988

Request: `CNCC[C@@H](Oc1ccccc1)c1ccccc1`
0.946

Request: CC[C@H]1CN2CCc3cc(OC)c(OC)cc3C2C[C@@H]1CC1NCCc2cc(OC)c(OC)cc21 (some centres not stated)
0.996

----------
# Test: chemical genetic growth profiling, strain panel (AID 1159580);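 further: tested at 20 µM; growth read once vehicle control cultures reached saturation at 30 °C; 1 = growth at the plate median or of vehicle wells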
# Stated conditions: S. cerevisiae deletion strains, growth OD, locus YCL011C, strain gbp2
Screen size: about 5,500 compounds; about 2,000 (36%) were called active. Another 18% or so got no clear call; they are omitted. No stated cut-off is given here; in the data, active means normalized growth mostly below about 0.91 (no sharp cut-off); inconclusive means no clear call, values can overlap the other calls; inactive means mostly above about 0.92. Some of the results follow. *1 amine or outer side, *2 acyl side, *3 side chain or, on linkers, in order; H or OH if unused. Where a SMILES comes first, the peptide text is derived from it. Bridges are numbered along the chain shown (N, C = ends). [ ]: non-standard residue; d: D form. The star is where a group is joined. ξ: configuration not given here. ΔAla(E,3-NHCONH2) = NC(=O)N/C=C(/N)C(=O)O; X2 = NC1=NCCC(C(N[*:1])C(=O)[*:2])N1; ξβ3hOrn = NCCCC(N)CC(=O)*; Dap = NC[CH](N)C(=O)O
Select the correct class. Options are active, inactive and nothing else.

Solved entries:
Compound	Assigned category
CO[C@H]1C[C@H](O[C@H]2[C@H](C)[C@@H](OC3O[C@H](C)C[C@H](N(C)C)[C@H]3OC(C)=O)[C@@H](C)C[C@]3(CO3)C(=O)[C@H](C)[C@@H](OC(C)=O)[C@@H](C)[C@@H](C)OC(=O)[C@@H]2C)O[C@@H](C)[C@@H]1OC(C)=O (stereo partly drawn)	inactive
CC1=CC2C(C(C)C)CCC(C)(O)C2CC1 (stereo not drawn)	inactive
O=c1oc2c(O)c(O)cc3c(=O)oc4c(O)c(O)cc1c4c23	active
NC(N)=NC(N)=Nc1ccccc1	inactive
O=C(CCBr)N1CCN(C(=O)CCBr)CC1	inactive
NCCCC(N)CC(=O)NCC1NC(=O)C(CO)NC(=O)C(N)CNC(=O)C(C2CCN=C(N)N2)NC(=O)/C(=C\NC(N)=O)NC1=O (stereo not drawn) (H-[Dap]S[Dap](ξβ3hOrn)[ΔAla(E,3-NHCONH2)][X2]; lactam 1-C; configuration not given here)	inactive

Hi team, can someone confirm the assay call for `CC(=O)Oc1ccccc1C(=O)O` ?
inactive

Request: `NCCc1cc(O)c(O)cc1O`
inactive
